Values were extracted from ChEMBL document CHEMBL3621088.

Assay target: Carbonic anhydrase 9 (Homo sapiens, UniProt Q16790)
pKi: −log10 of the molar value.
Measured endpoint: pKi

INSERT INTO assay_data (structure_string, measured_endpoint, measured_value) VALUES
  ('Cc1ccc(S(=O)(=O)Nc2cccc(C3C4=C(CC(C)(C)CC4=O)N(c4ccc(S(N)(=O)=O)cc4)C4=C3C(=O)CC(C)(C)C4)c2)cc1', 'pKi', 7.00),
  ('CC1(C)CC(=O)C2=C(C1)N(c1ccc(S(N)(=O)=O)cc1)C1=C(C(=O)CC(C)(C)C1)C2c1cccc(NS(=O)(=O)c2ccc(Br)cc2)c1', 'pKi', 6.60),
  ('CC1(C)CC(=O)C2=C(C1)N(c1ccc(S(N)(=O)=O)cc1)C1=C(C(=O)CC(C)(C)C1)C2c1cccc(N)c1', 'pKi', 6.04),
  ('CC1(C)CC(=O)C2=C(C1)N(c1ccc(S(N)(=O)=O)cc1)C1=C(C(=O)CC(C)(C)C1)C2c1ccc(NS(=O)(=O)c2ccc3ccccc3c2)cc1', 'pKi', 6.55);
